system: E. coli ESS; test: MIC against human bacteria in vitro; format: cell-based; details: Escherichia coli; E. coli ESS; 5% chocolated horse blood agar, 18 hours; read-out: MIC
For each of the molecules below, state its MIC.
Give bare numbers, in µg/mL.

molecule="C/C(=C\\c1ncc(-c2cccc(S(C)(=O)=O)c2)o1)C[C@@H]1OC[C@H](C[C@@H]2O[C@H]2[C@@H](C)[C@H](C)O)[C@@H](O)[C@H]1O [Example 23]" assayed_target="E. coli ESS" endpoint_result=4

# batch: return MIC for each of the 2 molecules below
1. C/C(=C\c1ncc(-c2cccc([N+](=O)[O-])c2)o1)C[C@@H]1OC[C@H](C[C@@H]2O[C@H]2[C@@H](C)[C@H](C)O)[C@@H](O)[C@H]1O [Example 6]
2. C/C(=C\c1ncc(-c2ccc(CO)cc2)o1)C[C@@H]1OC[C@H](C[C@@H]2O[C@H]2[C@@H](C)[C@H](C)O)[C@@H](O)[C@H]1O [Example 13]

1. 16
2. 2

These data points were gathered from patent US5041567A.
